experimental-details: yeast display, Sf9 membrane polyspecificity reagent, FACS + sequencing; frameworks hold sequencing errors

{"columns": ["biosequence", "polyreactivity (PSR sort gate)"],
 "data": [
  ["QVQLVDSGRGLVQAGGSLRLSCAASGFTVGVNAMGWDRQAPGKERELVAAITRSGGTTYYADSVQGRFTISRDKAKNTVYLQMNSLKPEDTAVYYCNRRARSYADDYWGQGTQVTVSS", "high polyreactivity"],
  ["QVQLVESGGGLVQAGGSLRLSCAASGFISARYAMGWYRQAPGKERELVAGISGGGGRTYYADSVKGRFTISRDNAKNTVYLQMNSLKPEDTAVFYCAATLQSRDRRFNYWGQGTQVTVSS", "high polyreactivity"]
]}

----------
experimental-details: yeast display, Sf9 membrane polyspecificity reagent, FACS + sequencing; frameworks hold sequencing errors
assay-endpoint: polyreactivity (PSR sort gate)

Example entries begin here.
{"columns": ["biosequence", "polyreactivity (PSR sort gate)"],
 "data": [
  ["QVQLVESGGGLVQAGGSLRLSCAASGRTLYYNPMGWYRQAPGKEREFVAAISYSGGGTYYADSVKGRFTISRDNAKNTVYLQMNSLKPEDTAVYYCNARIRRPYRVTAEYDYWGQGTQVTVSS", "high polyreactivity"],
  ["QVQLVESGGGLVQAGGSLRLSCAASGSIFVNNAMGWYRQAPGKERELVAAISSRSSRTFYADSVKGRFTISRDNAKNTVYLQMNSLKPEDTAVYYCAVKKRAPDGDYWGQGTQVTVSS", "high polyreactivity"],
  ["QVQLVESGGGLVQAGGSLRLSCAASGFIFWYNAMGWYRPAPGKEREFVAAISSGGSTTYADSVKGRFTISRDNAKNTVYLQMNSLKPEDTAVYYCAAGSYDYDYWGQGTQVTVSS", "low polyreactivity"],
  ["QVQLVESGGGLVQAGGSLRLSCAASGSIFYYYAMGWYRQAPGKEREFVATIRRSGASTYYADSVKGRFTISRDNAKNTVYLQMNSLKPEDTAVYYCNAASARRPIYEAARWSKYDYWGQGTQVTVSS", "low polyreactivity"]
]}

Continue with the next sequence.
Determine its reported polyreactivity (PSR sort gate): QVQLVESGGGLVQAGGSLRLSCAASGRTFAPNAMGRSRQAPGKERELVAAITSIGTRTYYADSVKGRFTISRDNAKNTVYLHKNSLKTEVTAVYYCNKKRNADYDYWGQGTQVTVSS
low polyreactivity

----------
experimental-details: yeast display, Sf9 membrane polyspecificity reagent, FACS + sequencing; frameworks hold sequencing errors
assay-endpoint: polyreactivity (PSR sort gate)

{"columns": ["biosequence", "polyreactivity (PSR sort gate)"],
 "data": [
  ["QVQLVESGGGLVQAGGSLSLSCAASGSIFGENAKGWYRQAPGKERELVAAITWGGTSTYYADSVKGRFTISRDNAKNTVYLQMNSLKPEDTAVYYCNTPRYVRRQGVKRYDYWGQGTQVTVSS", "low polyreactivity"],
  ["QVQHVESGGGLVQAGGTLRLSCAASGSIFFWYGMGRYRQAPGKERELVAAITSGGISYYADSVKGRFTISRDNAKNTVYFQMNSLKPEDTAVYYCATRTYTYWGGSYPHYYWGQGSQVTVSS", "high polyreactivity"],
  ["QVQLVESGGGLVQAGGSLRLSCAASGRTFAPYVMGWYRQAPGKERELVAAITWSGGSTYYADSVKGRFTISRDNAKKTVYLQMNSLKPEDTAVYYCAVKGAGGPKYDYWGQGTQVTVSS", "high polyreactivity"],
  ["QVQLQESGCGLVQVGGSLRLSCAASGTTFIYGFLGWNRQAPGKERELVASINLGGFTNYADSVKGRFTISRDNAKNTVYLQMISLNPEDSAVFYCAAYVVTGQNYGYWGKGTQVTVSS", "low polyreactivity"],
  ["QVQLVESGGGLVQAGVSLRLSCAASGYIFRFNAMGWYRQAPGKERELVAVITSGARTYYADSVKGRFTISRDNAKNTVYLQMNSLKPEDTAVYYCNAGARRYLYDYWGQGTQVTVSS", "low polyreactivity"]
]}

Determine its reported polyreactivity (PSR sort gate): QVQLVESGGGLVQAGGSLRLSCAASGFTFSHYAMGWYRQAPGKERELVAAITASGGNTYYADSVKGRFTISRDNAKNTVYLQMNSLKPEDTAVYYCNAVSLKFTRKFDYWGQGTQVTVSS
high polyreactivity

Determine its reported polyreactivity (PSR sort gate): QVQLVESGGGLVQAGGSLRLSCAASGIIFRYYAMGWYRQAPGKERELVAAISSSGVSTYYADSVKGRFTISRDNAKNTVYLQMNSLKPEDTAVYYCNAVIWVRQYFSRSSSNYWGQGTQVTVSS
high polyreactivity

Determine its reported polyreactivity (PSR sort gate): QVQLVESGGGLVQAGGSLRLSCAASGRILAYYVMGWYRQAPGKERELVAGINWSGGSTYYADSVKGRFTISRDNAKHTFYLQMNSLKPEDTGVYNCAARFVGVRDGYYYWGQGTQVTVSS
high polyreactivity

----------
experimental-details: yeast display, Sf9 membrane polyspecificity reagent, FACS + sequencing; frameworks hold sequencing errors
assay-endpoint: polyreactivity (PSR sort gate)

{"columns": ["biosequence", "measurement"],
 "data": [
  ["QVQLVESGGGLVQAGGSLRLSCAASGRIFPEYAMGWYRQAPGKERELVAAISSGDNTTYADSVKGRFTISRDNAKNTVYLQMNSLIPEDTAVYYCNAGSCTTGQGGPIIEYGYWGQGTQVTVSS", "low polyreactivity"],
  ["QVQLVESGGGLVQAGGSLRLSCAASGSIFDDYAMGCYIHAPGKERELVAAITWNGGSTYADSVKGRFTISRDNAKNTVYLQMNSLKPEDTAVYYCAADYFVYWYYGYGYWGQGTQVTVSS", "low polyreactivity"],
  ["QVQLVESGGGLVQAGGSLRLSCAASGSIFVRNAMGWYRQAPGKERELVASISYSGGTTYADSVKGRFTISRDNAKNTVYLQMNSLKPEDTAVYYCNAGGVYPRFTFLEQGYEMDYWGQGTQVTVSS", "low polyreactivity"]
]}

----------
experimental-details: yeast display, Sf9 membrane polyspecificity reagent, FACS + sequencing; frameworks hold sequencing errors
assay-endpoint: polyreactivity (PSR sort gate)

Example entries begin here.
{"columns": ["biosequence", "measurement"],
 "data": [
  ["QVQLVESGGRLVQARGSLSLSCAASGRTFLRYAMGWYRQAPGKERELVAAISQRGGSTYYADSVKGRFTISRDNAKNTVYLQMNRLKPEDTAVYYCAADFPSSQAVDSWGQGTQVTVSS", "high polyreactivity"],
  ["QVQLVESGGGLVQAGGSLRLSCAASGFIFRKYAMGWYRQAPGKERELVAAITSSGGSTYYADSVKGRFTISRDNAKNTVYLQMNSLKPEDTAVYYCAARLKQSGHDYWGQGTQVTVSS", "high polyreactivity"],
  ["QVQLVESGGGLVQAGGSLRLSCAASGIIFRHNAMGWYRQAPGKERELVAAISSGGNTYYADSVKGRFTISRDNAKNTVYLQMNSLKPEDTAVYYCAADVQDRYHRAWYDYWGQGTQVTVSS", "low polyreactivity"],
  ["QVQLVESGGGLVQAGGSLRLSCAASGRTFTIYAMGWYRQAPGKEREFVAGITTGGSSTYYADSVKGRFTISRDNAKNTVYLQMNILKPEDTAVYYCAAVSYAWYDYWGQGTHVTVSS", "low polyreactivity"]
]}

Determine its reported polyreactivity (PSR sort gate): QVQLVESGGGLVHAGGSLSLSCAASGSIFGQYAMGWYRQAPGKERELVAAISYSTDARTYYADSVKGRFTISRDNAKNTVYLQMNSLKPEDTAVYYFNADSYFGYWGQGTQVTVSS
low polyreactivity

Determine its reported polyreactivity (PSR sort gate): QGQLVESGGGLVQAGGSLRLSCAASGYIFDWYAMGWYRQAPGKEREFVAAISGSDGSTYYADSVKGRFTISRDNAKNTVYLQMNSLKPEDSAVYYCAADPYYGEMEYWGQGTQVTVSS
low polyreactivity

Determine its reported polyreactivity (PSR sort gate): QVQLVESGGGLVQAGGSLRLSCAASGFIFYRYAMGWSRQAPGKERELVAAISYRGGSTYYADSVKGRFTISRDIAKNTVYLQMNSLKAEDTAFYYCAAPGLYSRLDYWGQGTQVTVSS
high polyreactivity

Determine its reported polyreactivity (PSR sort gate): QDQLVESGGGLVQAGGSLRLSCAASGLTFQYNAMGWYRQAPRKERELVATISQSGGSTYYADSVKGRFTISRDNAKNTVYLQMNSLKREDTAVYYCAAYRAWTWRIRYDYWGQGTQVTVSS
low polyreactivity

Determine its reported polyreactivity (PSR sort gate): QVQLVETGGGLVQAGGTLRLSCAASGRIFLTNAMGWYRQAPGKERELVATITASGGTTYYADSVKGRFTISRDNAKITVYLQMNSLKPDDTAVYYCAKRYYLRGFGRYYYCGQGTQVTVSS
high polyreactivity

Determine its reported polyreactivity (PSR sort gate): QVQLVESGGGLVQAGGTLRLSCAASGRTFGYNAMGWYRPAPGKERELVAVIRSGGSTYYADSVKGRFTISRDNAKNTVYLQMNSLKPEDTAVYYCAATGLYNVTSPYSYKYDYWGQGTQVTVSS
low polyreactivity

Determine its reported polyreactivity (PSR sort gate): QVQLVESGGGLVQAGGSLRLSCAASGSILRQYAMGWYRQAPGKERELVATITGDGSTNYADSVKGRFTISRDNAKNTVYLQMNSLKPEDTAVYYCNTALTYPYPNVEDLVYGFKLDYWGQGTQVTVSS
low polyreactivity
